# reported IC50; entries follow
target: PKBα (Homo sapiens); experiment: PKB kinase assay (P33-labeled ATP, peptide substrate, filter plate); settings: PKBα enzyme (full length or kinase domain with pleckstrin domain deleted)

Some solved entries appear below for comparison.
N[C@H](CNc1ncc(-c2ccc3[nH]c(=O)oc3c2)s1)Cc1ccc(Cl)s1 [Example 213]    50 to 1000 nM
N[C@H](CNc1ncc(-c2ccc3[nH]ncc3c2)s1)Cc1ccc(C(F)(F)F)c(F)c1 [Example 186]    < 50 nM
NC(CNc1ncc(-c2ccc3[nH]c(=O)oc3c2)s1)Cc1ccc(C(F)(F)F)c(F)c1 (stereo not shown) [Example 181]    < 50 nM
CCC[C@@H](c1ccc(C(F)(F)F)cc1)[C@H](N)CNc1ncc(-c2ccc3c(c2)CC(=O)N3)s1 [Example 156]    50 to 1000 nM
Cn1c(=O)[nH]c2ccc(-c3cnc(NC[C@@H](N)Cc4ccc(C(F)(F)F)cc4)s3)cc21 [Example 57]    < 50 nM
N[C@H](CNc1nc(C(F)(F)CO)c(-c2ccc3[nH]c(=O)oc3c2)s1)Cc1ccc(C(F)(F)F)cc1 [Example 135]    1000 to 10000 nM
C[C@H](Nc1ncc(-c2ccc3[nH]c(=O)oc3c2)s1)[C@@H](N)Cc1ccc(C(F)(F)F)cc1 [Example 236]    1000 to 10000 nM
N[C@H](CNc1nc(C#CC2(O)CCCC2)c(-c2ccc3cnccc3c2)s1)Cc1ccc(C(F)(F)F)cc1 [Example 148]    50 to 1000 nM

*Q* Need IC50, item CNc1n[nH]c2ccc(-c3cnc(NC[C@@H](N)Cc4c[nH]c5ccccc45)s3)cc12 [Example 45]
*A* 1000 to 10000 nM

*Q* Need IC50, item N[C@H](CNc1nc(CO)c(-c2ccc3[nH]c(=O)oc3c2)s1)Cc1ccc(C(F)(F)F)cc1 [Example 125]
*A* < 50 nM

*Q* Need IC50, item Nc1noc2ccc(-c3cnc(NC[C@@H](N)Cc4ccc(C(F)(F)F)cc4)s3)cc12 [Example 51]
*A* 50 to 1000 nM

*Q* Need IC50, item N[C@H](CNc1ncc(-c2ccc3cnncc3c2)s1)Cc1ccc(C(F)(F)F)cc1 [Example 64]
*A* 50 to 1000 nM

*Q* Need IC50, item NC(=O)c1ccc(-c2cnc(NC[C@@H](N)Cc3ccc(C(F)(F)F)cc3)s2)cc1 [Example 49]
*A* 1000 to 10000 nM

*Q* Need IC50, item N[C@H](CNc1ncc(-c2ccc3cnccc3c2)s1)Cc1ccc(C(F)(F)F)cc1 [Example 6]
*A* < 50 nM

*Q* Need IC50, item CC#Cc1nc(NC[C@@H](N)Cc2ccc(C(F)(F)F)cc2)sc1-c1ccc2c(c1)CC(=O)N2 [Example 152]
*A* < 50 nM

*Q* Need IC50, item CC1C(=O)Nc2ccc(-c3cnc(NC[C@@H](N)Cc4ccc(C(F)(F)F)cc4)s3)cc21 (stereo partly shown) [Example 47]
*A* 50 to 1000 nM

====

target: PKBα (Homo sapiens, UniProt P31749); assay: PKB kinase assay (P33-labeled ATP, peptide substrate, filter plate); details: PKBα enzyme (full length or kinase domain with pleckstrin domain deleted)
Sequence (P31749 118-480 limits assumed): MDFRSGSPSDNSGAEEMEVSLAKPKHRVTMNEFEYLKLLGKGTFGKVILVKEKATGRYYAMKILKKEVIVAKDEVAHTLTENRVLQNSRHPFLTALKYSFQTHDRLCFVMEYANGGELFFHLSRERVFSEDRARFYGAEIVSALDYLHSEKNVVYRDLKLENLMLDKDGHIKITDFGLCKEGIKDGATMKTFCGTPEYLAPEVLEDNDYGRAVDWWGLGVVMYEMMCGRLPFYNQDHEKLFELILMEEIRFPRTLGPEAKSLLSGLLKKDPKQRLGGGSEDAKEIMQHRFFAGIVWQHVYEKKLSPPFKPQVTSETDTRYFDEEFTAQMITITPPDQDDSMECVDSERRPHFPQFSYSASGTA
Experimental readout: IC50

*Q* Need IC50, item N[C@H](CNc1ncc(-c2ccc3[nH]c(=O)[nH]c3c2)s1)Cc1ccc(C(F)(F)F)cc1 [Example 193]
*A* 50 to 1000 nM

*Q* Need IC50, item N[C@H](CNc1ncc(-c2cc3c(cc2F)NC(=O)C3)s1)Cc1ccc(C(F)(F)F)nc1 [Example 215]
*A* 50 to 1000 nM

*Q* Need IC50, item C[C@@H](c1ccccc1)[C@H](N)CNc1ncc(-c2ccc3[nH]c(=O)n(C)c3c2)s1 [Example 89]
*A* 1000 to 10000 nM

*Q* Need IC50, item COCc1nc(NC[C@@H](N)Cc2cccc(Cl)c2)sc1-c1nc2ccncc2s1 [Example 18]
*A* 1000 to 10000 nM

*Q* Need IC50, item C[C@H](Nc1ncc(-c2ccc3[nH]c(=O)n(C)c3c2)s1)[C@@H](N)Cc1ccc(C(F)(F)F)cc1 [Example 237]
*A* 1000 to 10000 nM

*Q* Need IC50, item N[C@H](CNc1nc(-c2ccccc2)c(-c2ccc3cnccc3c2)s1)Cc1ccc(C(F)(F)F)cc1 [Example 9]
*A* 50 to 1000 nM

*Q* Need IC50, item COC(=O)c1nc(NC[C@@H](N)Cc2ccc(C(F)(F)F)cc2)sc1-c1ccc2c(c1)CC(=O)N2 [Example 122]
*A* 50 to 1000 nM
